system-name: T1, TetRc-tdTomato (UniProt P03039 P03039:1-219)
T1 chain: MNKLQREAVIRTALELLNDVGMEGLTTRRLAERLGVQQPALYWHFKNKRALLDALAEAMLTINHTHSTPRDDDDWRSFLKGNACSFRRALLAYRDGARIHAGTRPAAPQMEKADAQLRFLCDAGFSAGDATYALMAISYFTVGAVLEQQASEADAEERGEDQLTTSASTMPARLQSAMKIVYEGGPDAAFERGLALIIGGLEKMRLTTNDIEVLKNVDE
assay-overview: FRET; aTc concentration for half-maximal DNA release; 5 mM MgCl2
run-parameters: tags: tdTomato fusion, Strep-tag purified; chain copies: 2; label: Cy5 at 5' and 3' of reverse strand
assay-metric: pEC50
Here pEC50 is given on a logarithmic scale as minus log10 of the concentration in mol/L.

Task: pEC50 lookup needed for TetO 28 bp (dsDNA) DNA 1: GTCATCCCTATCATTGATAGAGATACTG DNA 2: CAGTATCTCTATCAATGATAGGGATGAC , thanks.
Result: 6.66
